tested on: U251 CNS; experiment: NCI tumour cell line growth inhibition, 48 h
QUANTITY_MEASURED: TGI

The examples below pair each entry with its known result.
molecule="CC(Br)CN1CCOCC1 (configuration not stated)" value_observed="> 100 µM"
molecule=COc1ccc(Cc2cc(Cc3ccc(OC)cc3)cc(Cc3ccc(OC)cc3)c2)cc1 value_observed="> 100 µM"
molecule=C/C=C/C(=O)Oc1cccc2cccnc12 value_observed="12.9 µM"

Item under review: CN1CCC2(c3ccccc3)CC(=O)/C(=C/c3ccc(Cl)c(Cl)c3)C1C2 (configuration not stated) . Reported TGI?
3.47 µM

###

test system: NCI/ADR-RES ovarian; test: NCI tumour cell line growth inhibition, 48 h
QUANTITY_MEASURED: TGI (µM)
Field: numeric (µM). Do not append units.

The examples below pair each entry with its known result.
compound=Brc1ccccc2cc(-c3ccccc3)nc1-2 quantity_measured=TGI value_observed=44.6
compound="CN1CCC2(c3ccccc3)CC(=O)/C(=C/c3ccc(Cl)c(Cl)c3)C1C2 (stereo not given)" quantity_measured=TGI value_observed=11
compound="COC(=O)C1C(C(=O)O)C2(c3ccccc3)C(=O)C1(c1ccccc1)C(c1ccccc1)=C2c1ccccc1 (stereo not given)" quantity_measured=TGI value_observed=34
compound=C#C[C@@]1(O)[C@@H](CO)O[C@@H](n2cc(Br)c3c(Cl)ccnc32)[C@@H]1O quantity_measured=TGI value_observed=5.03
compound="Cc1ccc(N2C(=O)C3c4[nH]c5ccc(C)cc5c4C4CCC(C(C)(C)C)CC4C3C2=O)cc1 (stereo not given)" quantity_measured=TGI value_observed=60.2

Provide value of TGI for this record tested with NCI/ADR-RES ovarian: Cn1c(=O)c2ccccc2[n+]2c(-c3cccc([N+](=O)[O-])c3)csc12
83.5

Next compound: Cc1cc(O)c2c(c1)C(=O)c1c(c(O)cc(O)c1-c1c(O)cc(O)c3c1C(=O)c1cc(C)cc(O)c1C3=O)C2=O
152

Next compound: NC(=O)c1c(NC(=O)c2cccs2)sc2c1CCC(=O)C2
26.4

Next compound: CCc1nc(C)cn1C(=O)OCc1nc2nc(Cl)nc(N3CCOCC3)c2[nH]1
9.02

Next compound: N#Cc1c(Cl)cc(C#N)n2c1nc1ccccc12
42.4

Next compound: C[C@@H]1S[C@H](c2c(F)cccc2Cl)n2c1nc1ccccc12
31.4

Next compound: CN1CCN(c2cc3nc(-c4ccc(Cl)cc4)[nH]c3cc2F)CC1
67.6

Next compound: CSc1c(C#N)c(=O)n(N)c2c1c(C)nn2-c1ccccc1
62.9

Next compound: Cc1cc(CCC(=O)NCCNc2c3ccccc3nc3ccccc23)cc(C)c1O[Si](C)(C)C(C)(C)C
4.44

Next compound: O=C(Oc1ccccc1)N(c1ccccc1)c1ccccc1
72.2

Next compound: C=C(Cl)/C(=C\Cl)CCC(Cl)C(C)C (stereo not given) (tested in a mixture with another compound)
84.4

Next compound: CNC(=O)ON(C(C)=O)C(=O)NC
266

Entry source: PubChem BioAssay (NCI)
